List of CC50 values.
# experiment: Cytotoxicity against human Huh7.5 cells
# Type: toxicity, cell-based, Huh-7.5
*1 amine or outer side, *2 acyl side, *3 side chain or, on linkers, in order; H or OH if unused. Where a SMILES comes first, the peptide text is derived from it. [ ]: non-standard residue; d: D form. dAla(ψthiazole) = C[C@@H](N[*:1])c1nc(C(=O)[*:2])cs1; Trp(4-OMe) = COc1cccc2[nH]cc(C[C@H](N)C(=O)O)c12; X1 = CC(=O)[C@](C)(N[*:1])C(=O)[*:2]; Dhb = C/C=C(\N)C(=O)O; Sar = CNCC(=O)O
attribute_measured: CC50

{"columns": ["molecule", "data_value"],
 "data": [
  ["C/C=C1\\NC(=O)[C@@H](CC)NC(=O)CNC(=O)[C@](C)(C(C)=O)NC(=O)[C@H](Cc2c[nH]c3cccc(OC)c23)NC(=O)c2csc(n2)[C@@H](C)NC(=O)CNC1=O", "> 106 µM"],
  ["C/C=C1\\NC(=O)[C@@H](CC)NC(=O)CNC(=O)[C@](C)([C@H](C)O)NC(=O)[C@H](Cc2c[nH]c3cccc(OC)c23)NC(=O)c2csc(n2)[C@@H](C)NC(=O)CN(C)C1=O", "> 200 µM"],
  ["C/C=C1\\NC(=O)[C@@H](C)NC(=O)CNC(=O)[C@](C)(C(C)=O)NC(=O)[C@H](Cc2c[nH]c3cccc(OC)c23)NC(=O)c2csc(n2)[C@@H](C)NC(=O)CN(C)C1=O (cyclo([Dhb][Sar][dAla(ψthiazole)][Trp(4-OMe)][X1]G[dA]))", "> 36.5 µM"],
  ["CC(C)OC(=O)[C@H](C)N[P@@](=O)(OC[C@H]1O[C@@H](n2ccc(=O)[nH]c2=O)[C@](C)(F)[C@@H]1O)Oc1ccccc1", "> 200 µM"],
  ["C/C=C1\\NC(=O)[C@@H](CC)NC(=O)CNC(=O)[C@](C)(C(C)=O)NC(=O)[C@H](Cc2c[nH]c3cccc(OC)c23)NC(=O)c2csc(n2)[C@@H](C)NC(=O)CN(C)C1=O", "> 111 µM"],
  ["C/C=C1\\NC(=O)[C@@H](C)NC(=O)CNC(=O)[C@](C)(C(C)=O)NC(=O)[C@H](Cc2c[nH]c3cccc(OC)c23)NC(=O)c2csc(n2)[C@@H](C)NC(=O)CNC1=O", "> 200 µM"]
]}

src = ChEMBL document CHEMBL5120904
